Each recorded value in this set is attributed to patent US9376418B2.

For each record, write down the corresponding IC50.
# assayedSystem: recombinant human GST-SYK (Homo sapiens, UniProt P43405)
# Construct: purchased Carna Biosciences 08-176
# methodNotes: Homogeneous Time-Resolved Fluorescence (HTRF) assay for the recombinant human Syk enzyme
# Format: biochemical
# appliedConditions: HTRF assay, recombinant human GST-SYK; IC50 given as class symbols; read-out: rhSYK Activity

## Input Enter IC50 (test system recombinant human GST-SYK (Homo sapiens, UniProt P43405)) for Cc1cc(Nc2nccc(C(F)(F)F)n2)cc(-c2cccnc2)c1 [Example 2.57]
## Output < 100 nM

## Input Retrieve IC50 on recombinant human GST-SYK (Homo sapiens, UniProt P43405); query Cc1cc(Nc2nccc(C(F)(F)F)n2)cc(-c2ccc(NCC(=O)NCC(=O)O)nc2)c1 [Example 7.138]
## Output < 100 nM

## Input # return IC50 of Cc1cc(Nc2nccc(C)n2)cc(-c2cncc(C(O)(CO)CO)c2)c1 [Example 9.75] (system: recombinant human GST-SYK (Homo sapiens, UniProt P43405))
## Output 100 to 1000 nM

## Input Fetch value of IC50 on recombinant human GST-SYK (Homo sapiens, UniProt P43405) for Cc1cc(Nc2nccc(C(F)(F)F)n2)cc(-c2ccc(N3CC(C4CCC(C(=O)O)CC4)C3)nc2)c1 (centres unmarked) [Example 7.145] .
## Output < 100 nM

## Input Please look at COC1CN(C(=O)c2ccc(-c3cc(C)cc(Nc4nccc(C(F)(F)F)n4)c3)cn2)C1 [Example 16.34] and tell me its recorded IC50 on recombinant human GST-SYK (Homo sapiens, UniProt P43405).
## Output 100 to 1000 nM

## Input State, for recombinant human GST-SYK (Homo sapiens, UniProt P43405), measured IC50 of the compound listed here: Cc1cc(Nc2nccc(C(F)(F)F)n2)cc(-c2ccc(NC3CNC(=O)C3)nc2)c1 (centres unmarked) [Example 7.128]
## Output < 100 nM

## Input Report IC50 on recombinant human GST-SYK (Homo sapiens, UniProt P43405) for this entry: CCOC(=O)CCc1cc(-c2cc(C)cc(Nc3nccc(C4CC4)n3)c2)ccn1 [Example 2.136]
## Output 100 to 1000 nM

## Input State IC50 on recombinant human GST-SYK (Homo sapiens, UniProt P43405). Entry: COc1cccc(-c2cccc(Nc3nccc(C(F)(F)F)n3)c2)n1 [Example 2.3]
## Output 1000 to 10000 nM

## Input Please respond with reported IC50 (system recombinant human GST-SYK (Homo sapiens, UniProt P43405)) for Cc1cc(Nc2nccc(C(F)(F)F)n2)cc(-c2ccnc(C(F)(F)F)c2)c1 [Example 2.123] .
## Output 100 to 1000 nM

## Input Consider the compound Cc1cc(Nc2nccc(C(F)(F)F)n2)cc(-c2ccc(C(=O)N3CCOC3=O)nc2)c1 [Example 16.3] tested on recombinant human GST-SYK (Homo sapiens, UniProt P43405); state its IC50.
## Output < 100 nM

## Input Give recombinant human GST-SYK (Homo sapiens, UniProt P43405) IC50 for the following compound: Cc1cc(Nc2nccc(C(F)(F)F)n2)cc(-c2cncc(C#N)c2)c1 [Example 2.56]
## Output < 100 nM

## Input Would you please give the reported IC50 of Cc1cc(Nc2nccc(C(F)F)n2)cc(-c2ccc(C(C)(O)C3CCC(C(=O)O)CC3)nc2)c1 (single isomer, unassigned) [Example 9.29] with recombinant human GST-SYK (Homo sapiens, UniProt P43405)?
## Output < 100 nM

## Input # return IC50 of Cc1cc(Nc2nccc(C(F)(F)F)n2)cc(-c2ccc(C(=O)N(C)CCC3OCCO3)nc2)c1 [Example 16.25] (system: recombinant human GST-SYK (Homo sapiens, UniProt P43405))
## Output 100 to 1000 nM

## Input Tell me IC50 of Cc1cc(Nc2nccc(C(F)(F)F)n2)cc(-c2ccc(N3CC[C@H]3C(=O)O)nc2)c1 [Example 7.6] when tested on recombinant human GST-SYK (Homo sapiens, UniProt P43405).
## Output < 100 nM

## Input Please report IC50 with recombinant human GST-SYK (Homo sapiens, UniProt P43405) for item COC(=O)Cn1cc(-c2ccc(-c3cc(C)cc(Nc4nccc(C(F)(F)F)n4)c3)cn2)nn1 [Example 25.1] .
## Output 100 to 1000 nM

## Input With recombinant human GST-SYK (Homo sapiens, UniProt P43405) as the test system, provide measured IC50 for this compound: Cc1cc(Nc2nccc(C(F)(F)F)n2)cc(-c2ccc(CCC(N)=O)nc2)c1 [Example 13.3]
## Output < 100 nM

## Input Please report IC50 with recombinant human GST-SYK (Homo sapiens, UniProt P43405) for item CC(=O)Nc1cc(Nc2nccc(C(F)(F)F)n2)cc(-c2ccncc2)c1 [Example 6.5] .
## Output < 100 nM

## Input Write down the reported IC50 (system: recombinant human GST-SYK (Homo sapiens, UniProt P43405)) of Cc1cc(Nc2nccc(C(F)(F)F)n2)cc(-c2ccc(N(C)CC(N)=O)nc2)c1 [Example 7.153]
## Output < 100 nM

## Input Report value: IC50, system: recombinant human GST-SYK (Homo sapiens, UniProt P43405), compound: Cc1cc(Nc2nccc(C(F)(F)F)n2)cc(-c2ccc(C3(O)CCC(=O)CC3)nc2)c1 [Example 9.54]
## Output < 100 nM

## Input Look up and report IC50, with recombinant human GST-SYK (Homo sapiens, UniProt P43405) as system, for Cc1cc(Nc2nccc(C(F)(F)F)n2)cc(-c2ccc(NC3CCNC3=O)nc2)c1 (centres unmarked) [Example 7.68]
## Output < 100 nM

## Input Recall the reported IC50 of CCOC(=O)CCc1cc(-c2cc(C)cc(Nc3nccc(C)n3)c2)ccn1 [Example 2.134] when tested on recombinant human GST-SYK (Homo sapiens, UniProt P43405).
## Output 100 to 1000 nM

## Input Quote IC50 with test system recombinant human GST-SYK (Homo sapiens, UniProt P43405) for Cc1cc(Nc2nccc(C(F)(F)F)n2)cc(-c2ccc(N[C@@H](CCO)C(=O)O)nc2)c1 [Example 7.71]
## Output < 100 nM

## Input Output reported IC50 of the compound Cc1cc(Nc2nccc(C(F)(F)F)n2)cc(-c2ccc(N3CCCC3C(=O)O)nc2)c1 (racemic) [Example 7.119] on recombinant human GST-SYK (Homo sapiens, UniProt P43405).
## Output < 100 nM
